# System: CCRF-CEM leukemia
# Protocol: NCI-60 one-dose screen, 48 h (100 = growth as untreated, 0 = no growth, -100 = all killed)
# Assay Setup: 10 µM unless noted
# Protocol: Growth inhibition of the CCRF-CEM human tumor cell line is measured as a screen for anti-cancer activity. Cells are grown in 96 well plates and exposed to the test compound for 48 hours. Compounds are tested at a single concentration, which is 10^-5 M for most compounds. The reported endpoint is percent growth (GI% or GIPRCNT), where numbers from 0 - 100% represent growth inhibition, and numbers from -100% - 0 represent cell death. For example, a value of 40 represents 60% growth inhibition. […]
The panel holds about 83,000 compounds, 20% with a hit somewhere; the sample as a whole holds those more often.
Overview of reported growth across a group of compounds:
# value in %; strip the unit string

Below, each entry is followed by its recorded growth result.
CCC(C)N(CCNc1cc(OC)cc2cccnc12)CC(C)C (centres undefined); 90.9
Cc1cn(-c2cc(NC(=O)c3cccc(C#Cc4cccc5[nH]nc(N)c45)c3)cc(C(F)(F)F)c2)cn1; 15
O=C(c1ccccc1)c1ccc(C2CCCCC2)cc1; 96.2
CC1OC(n2c3ccccc3c3c4c(c5c6ccccc6[nH]c5c32)C(=O)N(CCN2CCCC2)C4=O)CC(O)C1O (centres undefined); 27.2
CC(C)(C)[Si](C)(C)OC1[C@@H](CNC(=O)NC(=O)NC(N)=O)O[C@@H](n2cnc3c(NC(=O)Nc4ccccc4)ncnc32)[C@H]1O[Si](C)(C)C(C)(C)C (some centres undefined); 71.4

Fill: growth (CCRF-CEM leukemia) for this compound COc1ccc(C2CC(c3ccc(Nc4nc(Nc5ccccc5)nc(Nc5ccccc5)n4)cc3)=NN2C(C)=O)cc1 (centres undefined)
88.6

Fill: growth (CCRF-CEM leukemia) for this compound NC(Cc1ccc(O)c([N+](=O)[O-])c1)C(=O)O (centres undefined)
88.7

Fill: growth (CCRF-CEM leukemia) for this compound N#Cc1ccc(O)c(C2=NCC(c3cccc(Oc4ccccc4)c3)O2)c1 (centres undefined)
14.4

Fill: growth (CCRF-CEM leukemia) for this compound O=C1Nc2ccccc2/C1=C/c1nc2ccccc2c(=O)[nH]1
55.8

* * *

# System: SF-295 CNS
# Protocol: NCI-60 one-dose screen, 48 h
# Assay Setup: 10 µM unless noted
Compounds without any hit were thinned out: in the full panel of roughly 83,000, 20% have a hit. Calls of active or inactive are those of the source. Rule for the calls: active = growth percent below 10; inactive = the rest.
Select the correct class. Options are active, inactive and nothing else.

The following compounds have reported results that may help.
COc1ccc2c(c1)c(-c1nc(-c3c[nH]c4ccncc34)cs1)cn2C; active
Cc1c2cnccc2c(C)c2c1c1cc(C#N)ccc1n2C; active

Which outcome was assigned to COc1ccccc1NC(=O)N=Nc1c(O)[nH]c2ccccc12 in this test?
inactive

Which outcome was assigned to CC(O)(c1ccccc1)C(c1ccccc1)C1CCCCN1 (stereo unspecified) in this test?
inactive

Which outcome was assigned to O=CN1N=C(c2cccc(Nc3ccnc4cc(Cl)ccc34)c2)CC1c1ccccc1 (stereo unspecified) in this test?
active

Which outcome was assigned to COc1ccc(/C=C/C(=O)c2ccc(Nc3ccnc4cc(Cl)ccc34)cc2)cc1 in this test?
inactive

* * *

Overview of reported growth across a group of compounds:
# System: NCI/ADR-RES ovarian
# Protocol: NCI-60 one-dose screen, 48 h (100 = growth as untreated, 0 = no growth, -100 = all killed)
# Assay Setup: 10 µM unless noted
This is part of a sample that, as a whole, favours compounds with a hit. Of some 83,000 tested, about 20% had one in any assay. Activity calls are given as the source filed them. Rule for the calls: active = growth percent below 10; inactive = the rest.

Below, each entry is followed by its recorded growth result.
O=C(/C=C/c1cccc(Cl)c1)c1ccc(Nc2nc(Nc3ccc(F)cc3)nc(Nc3ccc(Cl)cc3)n2)cc1; 100% (inactive)
CCCCNC(=O)Oc1ccc(/C(=C(/C)Cc2ccc(OC)cc2)c2ccc(OCCN3CCCC3)cc2)cc1; 81.5% (inactive)
CCOC(=O)c1c(C(=O)c2cn(C)c3ccc(Br)cc23)c(-c2cn(C)c3ccc(Br)cc23)n(NC(=O)OC(C)(C)C)c1C; 85.4% [100 µM] (inactive)
COC(=O)CC[C@@H]1O[C@@H](c2cccc(C(F)(F)F)c2)[C@@H](O)[C@H]1O; 108% (inactive)
COc1ccc(-c2noc(C(=O)O)c2-c2cc(OC)c(OC)c(OC)c2)cc1; 27.7% (inactive)

Fill: growth (NCI/ADR-RES ovarian) for this compound COc1c(B(O)O)cccc1-c1nc2c(F)cc3[nH]ncc3c2c2c1CCCC2
17.7% (inactive)

Fill: growth (NCI/ADR-RES ovarian) for this compound Cn1cc(C(=O)c2nc(-c3c[nH]c4ccccc34)no2)c2cc(F)ccc21
36.5% (inactive)
